Form field: TGI (one value per entry).
System: IGROV1 ovarian
assay.info: NCI tumour cell line growth inhibition, 48 h
Your answer should be a plain number; it is taken to be in µM.

Completed entries (count: 2):
N#Cc1c(-c2ccc(Cl)cc2)cc(-c2nc3ccccc3[nH]2)nc1N ... 22.2
N#CC1CCc2c(c(-c3cn[nH]c3C(F)(F)F)nc3c(F)cc4[nH]ncc4c23)C1 (stereo unspecified) ... 8.79

# next compound below
Give the reported value of TGI for this record: CC(=O)O[C@H]1C(=O)[C@@]2(C)C(C(OC(=O)c3ccccc3)[C@]3(O)CC(OC(=O)C(O)C(NC(=O)c4ccccc4)c4ccc(C)cc4)C(C)=C1C3(C)C)[C@]1(OC(C)=O)CO[C@@H]1C[C@@H]2O (stereo partly specified) 19

---

System: SK-MEL-28 melanoma
assay.info: NCI tumour cell line growth inhibition, 48 h
observed.property: TGI

Completed entries (count: 3):
COc1cccc(C2CC(=O)c3cccn32)c1 (configuration not stated) ... > 100 µM
O=C1C2=C(c3ccccc31)C(c1ccc(F)cc1)N1C(=O)CCSC1=N2 (configuration not stated) ... > 100 µM
CN(C)C=Nc1nncc2n[nH]nc12 ... > 100 µM

// fetch TGI for `Cc1ccc(SCC(O)=C2C(=O)CCCC2=O)cc1` ; system: SK-MEL-28 melanoma > 100 µM

// fetch TGI for CSC1NNC2(C(=O)N1)c1ccccc1-c1ccccc12 (configuration not stated) ; system: SK-MEL-28 melanoma > 10 µM

---

System: PC-3 prostate
assay.info: NCI tumour cell line growth inhibition, 48 h
Form field: TGI (one value per entry).

Completed entries (count: 2):
CC(C)N(Cc1ccccc1)S(=O)(=O)c1n[nH]c(C(C)(C)C)n1 ... > 100 µM
O=C(O)c1ccc2cccnc2c1O ... > 100 µM

# next compound below
Give the reported value of TGI for this record: `COC(=O)/C=C\C(C#N)(C#N)N=Cc1ccsc1` 25.4 µM

---

Tested on: IGROV1 ovarian
assay.info: NCI tumour cell line growth inhibition, 48 h
observed.property: TGI

COC(=O)/C(=N/O)C(C(=O)OC)C(=O)C(=O)Nc1c(Cl)cc(C)cc1S(=O)(=O)O (stereo not drawn) ... > 100 µM
[N-]=[N+]=Nc1c(Br)c(=O)[nH]c(=O)n1COCCO ... > 100 µM

Give the reported value of TGI for this record: COc1cc(-c2[o+]c3cc(O)cc(OC4OC(CO)C(O)C(O)C4O)c3cc2OC2OC(CO)C(O)C(O)C2O)cc(OC)c1O (stereo not drawn) > 100 µM

---

Test system: SK-MEL-28 melanoma
assay.info: NCI tumour cell line growth inhibition, 48 h
Record yes (1) whenever TGI is at 30 µM or higher; record no (0) when lower.

C#CCOc1cccc(Nc2ncc3ncn(C4CCN(C(=O)CCl)C4)c3n2)c1 (configuration not stated) ... yes (1)
O[C@H](CN1CC1)[C@@H](O)CN1CC1 ... yes (1)
Cc1nc2sc(C(=O)Nc3cccc(Cl)c3C)c(N)c2cc1C(C)O (configuration not stated) ... yes (1)
C[C@@H]1OCC(O)C([C@H]2OC(c3ccccc3)=N[C@H]2CO)O1 (some centres not stated) ... yes (1)
CCOC(=O)c1cn(C)nc1N/C(C)=C\C(=O)c1ccccc1 ... yes (1)

Switching to the query record.
Given `O=S(=O)(/N=C1/SC(=Nc2ccccc2)N(c2ccccc2)/C1=N/S(=O)(=O)c1ccccc1)c1ccccc1` , state whether its TGI is at least 30 µM. yes (1)

---

Form field: TGI (one value per entry).
System: SK-MEL-28 melanoma
assay.info: NCI tumour cell line growth inhibition, 48 h
Your answer should be a plain number; it is taken to be in µM.

Completed entries (count: 2):
c1ccc(-c2cnc3nc4ccccc4nc3n2)cc1 ... 32.8
CCC(=O)OC1=CN2C(=NC(c3ccc(N)cc3)=CC2c2cc(OC)c(OC)c(OC)c2)S1 (stereo unspecified) ... 18.3

# next molecule below
Give the reported value of TGI for this record: `COc1cc(/C=C/c2cc(/C=C/c3ccc(O)c(OC)c3)[nH]c(=O)n2)ccc1O` 13.1

---

System: SK-MEL-28 melanoma
assay.info: NCI tumour cell line growth inhibition, 48 h
Form field: TGI (one value per entry).

CCOC(=O)N1C(=S)C(C(=O)OC)(C(=O)OC)N=C1C ... > 100 µM

Give the reported value of TGI for this record: `COc1cc(C(=O)C/C(CCC(=O)Nc2ccc(Cl)cc2Cl)=N/Nc2nnc(C)n2N)ccc1O` > 100 µM

Give the reported value of TGI for this record: `Cc1ccc(S(=O)(=O)c2ccsc2N)cc1` > 100 µM
